Kd: recorded values
Target: T1, human IGF2^1-67 (mature insulin-like growth factor 2) (human, UniProt P01344 25-91, biotinylated (site not stated) where immobilised on the chip (Tables 1-4))
T1 construct: mature; also called mature IGF2; biotinylated IGF2
T1 sequence (P01344 25-91): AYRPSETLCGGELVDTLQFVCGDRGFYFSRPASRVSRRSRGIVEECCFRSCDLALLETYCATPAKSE
Experiment: SPR kinetic, biotin-IGF2 on chip, pH 7.4

BINDER	Kd / nM
IGF2R domain 11^AB5 (receptor, His6-tagged soluble domain 11; also called 1542YAKGWG1547) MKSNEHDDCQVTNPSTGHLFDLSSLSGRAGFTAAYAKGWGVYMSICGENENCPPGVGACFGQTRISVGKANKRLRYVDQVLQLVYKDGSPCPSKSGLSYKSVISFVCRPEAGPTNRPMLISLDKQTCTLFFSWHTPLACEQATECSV	5.07
domain 11^AB3 Q1569R P1597H S1602H (receptor, See m5) MKSNEHDDCQVTNPSTGHLFDLSSLSGRAGFTAAYSKSGVVYMSICGENENCPPGVGACFGRTRISVGKANKRLRYVDQVLQLVYKDGSHCPSKHGLSYKSVISFVCRPEAGPTNRPMLISLDKQTCTLFFSWHTPLACEQATECSV	0.74
domain 11^AB5 Q1569R P1597H K1631W (receptor, See m5) MKSNEHDDCQVTNPSTGHLFDLSSLSGRAGFTAAYAKGWGVYMSICGENENCPPGVGACFGRTRISVGKANKRLRYVDQVLQLVYKDGSHCPSKSGLSYKSVISFVCRPEAGPTNRPMLISLDWQTCTLFFSWHTPLACEQATECSV	1.02

Attribution: patent US20180237497A1
